Reference for the values: ChEMBL document CHEMBL4373694

# Species on record: Homo sapiens
# ASSAY: Selectivity ratio, ratio of IC50 for human 20S proteasome beta 1i to IC50 for 20S proteasome beta 5i (unknown origin)
ENDPOINT: Ratio IC50
Please reply with the value in numeric form only.

- SMILES_REPR: "CC(C)C[C@H](NC(=O)c1cn(Cc2ccccc2)nn1)B(O)O"
  MEASURED: 0.14
- SMILES_REPR: "CC(C)C[C@H](NC(=O)c1cn(C2CCCCC2)nn1)B(O)O"
  MEASURED: 0.2
- SMILES_REPR: "Cc1c(C(=O)N[C@@H](CC(C)C)B(O)O)nnn1Cc1ccccc1"
  MEASURED: 0.4

Query :: Which value of Ratio IC50 has been reported for `Cc1ccc(C[C@H](NC(=O)c2nnn(Cc3ccccc3)c2C)B2O[C@@H]3C[C@@H]4C[C@@H](C4(C)C)[C@]3(C)O2)c(C)c1` in the records?
Result :: 2100

Query :: What value of Ratio IC50 has been reported for the following molecule? `C=CC(=O)N(CC(=O)N[C@@H](Cc1ccc(C)cc1C)B(O)O)c1ccccc1F`
Result :: 247

Query :: What value of Ratio IC50 has been recorded for this entry: `COc1ccc(C(=O)NCCn2cc(C(=O)N[C@@H](CC(C)C)B(O)O)nn2)c(OC)c1OC`
Result :: 5.2

----------
# Species on record: Homo sapiens
# ASSAY: Selectivity ratio, ratio of IC50 for 20S proteasome beta 1c (unknown origin) to IC50 for human 20S proteasome beta 5i
ENDPOINT: Ratio IC50
Field format: numeric only.

- SMILES_REPR: "CC(C)C[C@H](NC(=O)c1cn(C2CCCCC2)nn1)B(O)O"
  ENDPOINT: "Ratio IC50"
  MEASURED: 120

Kindly review the next compound as well.
Query :: Dear colleague, I am looking for the recorded Ratio IC50 of the following compound: `COc1ccc(C(=O)NCCn2cc(C(=O)N[C@@H](CC(C)C)B(O)O)nn2)c(OC)c1OC`
Result :: 640

----------
# ASSAY: Inhibition of 20S proteasome beta 1c derived from human erythrocytes preincubated for 1 hr using Z-nLPnLD-Glo peptide as substrate by proteasome-glo caspase-like assay
ENDPOINT: pIC50
pIC50 field: float, defined as -log10 of concentration (mol/L).

- SMILES_REPR: "CC(C)C[C@H](NC(=O)c1cn(-c2ccccc2)nn1)B(O)O"
  MEASURED: 5.38

Query :: Which pIC50 value is on record for `CC(C)C[C@H](NC(=O)c1cn(C2CCCCC2)nn1)B(O)O` ?
Result :: 6.32

Query :: pIC50 lookup needed for `COc1ccc(C(=O)NCCn2cc(C(=O)N[C@@H](CC(C)C)B(O)O)nn2)c(OC)c1OC` , thanks.
Result :: 5.85

Query :: Requested field: pIC50. Item: `O=C(N[C@@H](Cc1ccc(Cl)cc1)B(O)O)c1cn(-c2ccccc2)nn1`
Result :: 5.26

Query :: May I ask what pIC50 has been recorded for `CC(C)C[C@H](NC(=O)c1cc(Cc2ccccc2)on1)B(O)O` ?
Result :: 5.85

----------
We begin with a simple list: items and their reported IC50.
# ASSAY: Inhibition of 20S proteasome beta 1c derived from human erythrocytes preincubated for 1 hr using Z-nLPnLD-Glo peptide as substrate by proteasome-glo caspase-like assay
Give the value in µM but do not write µM after it.

Worked set:
- SMILES_REPR: "COC[C@H](NC(=O)c1cc(C)on1)C(=O)N[C@H](C(=O)N[C@@H](CC(C)C)C(=O)[C@@]1(C)CO1)C1CC1"
  IC50 / µM: 11
- SMILES_REPR: "Cc1c(C(=O)N[C@@H](CC(C)C)B(O)O)nnn1-c1ccccc1"
  IC50 / µM: 18

Query :: Any idea what its IC50 is? The compound is `O=C(N[C@@H](Cc1ccc(Cl)cc1)B(O)O)c1cn(Cc2ccccc2)nn1`
Result :: 0.53

Query :: Recorded IC50 for `CC(C)C[C@H](NC(=O)c1cn(Cc2ccccc2)nn1)B(O)O` , please?
Result :: 0.071

----------
IC50 overview
# ASSAY: Inhibition of human 20S proteasome beta 5i preincubated for 1 hr followed by fluorescence based assay

- SMILES_REPR: "O=C(N[C@@H](Cc1ccc(Cl)cc1)B(O)O)c1cnn(Cc2ccccc2)c1"
  IC50: "87 nM"
- SMILES_REPR: "Cc1c(C(=O)N[C@@H](CC(C)C)B(O)O)nnn1-c1ccccc1"
  IC50: "130 nM"
- SMILES_REPR: "CC(C)C[C@H](NC(=O)c1cn(C)nn1)B1O[C@@H]2C[C@@H]3C[C@@H](C3(C)C)[C@]2(C)O1"
  IC50: "55 nM"
- SMILES_REPR: "CC(C)C[C@H](NC(=O)c1cn(C2CCCCC2)nn1)B(O)O"
  IC50: "4.1 nM"
- SMILES_REPR: "O=C(N[C@@H](Cc1ccc(Cl)cc1)B(O)O)c1cnn(-c2ccccc2)c1"
  IC50: "6.8 nM"
- SMILES_REPR: "Cc1ccc(C[C@H](NC(=O)c2cn(Cc3ccccc3)nn2)B2O[C@@H]3C[C@@H]4C[C@@H](C4(C)C)[C@]3(C)O2)c(C)c1"
  IC50: "1.2 nM"

Query :: Sample `CC(C)C[C@H](NC(=O)c1ncn(Cc2ccccc2)n1)B(O)O` — what was its IC50?
Result :: 360 nM

Query :: Quick one: IC50 of `CC(C)C[C@H](NC(=O)c1nnc(Cc2ccccc2)[nH]1)B(O)O` ?
Result :: 19 nM

Query :: Fill blank: measured IC50 of the molecule `COc1ccc(C(=O)NCCn2cc(C(=O)N[C@@H](CC(C)C)B(O)O)nn2)c(OC)c1OC` is ____.
Result :: 2.2 nM

----------
# Organism: Homo sapiens
# ASSAY: Selectivity ratio, ratio of IC50 for 20S proteasome beta 5c (unknown origin) to IC50 for human 20S proteasome beta 5i
# Ratio IC50 per entry
The reply should be a number, written without any unit.

- SMILES_REPR: "COc1ccc(C(=O)NCCn2cc(C(=O)N[C@@H](CC(C)C)B(O)O)nn2)c(OC)c1OC"
  MEASURED: 17
- SMILES_REPR: "Cc1ccc(C[C@H](NC(=O)c2nnn(Cc3ccccc3)c2C)B2O[C@@H]3C[C@@H]4C[C@@H](C4(C)C)[C@]3(C)O2)c(C)c1"
  MEASURED: 2200
- SMILES_REPR: "COC[C@H](NC(=O)c1cc(C)on1)C(=O)N[C@H](C(=O)N[C@@H](CC(C)C)C(=O)[C@@]1(C)CO1)C1CC1"
  MEASURED: 0.04
- SMILES_REPR: "CC(C)C[C@H](NC(=O)c1cn(C2CCCCC2)nn1)B(O)O"
  MEASURED: 710

Now examine the next entry.
Query :: What value of measured Ratio IC50 is listed for `CC(C)C[C@H](NC(=O)c1cn(C)nn1)B1O[C@@H]2C[C@@H]3C[C@@H](C3(C)C)[C@]2(C)O1` ?
Result :: 174

----------
# key: entry, value: IC50
# ASSAY: Cytotoxicity against human plasmablasts assessed as reduction in cell viability by CellTiter Glo assay
# Format: functional
Quick note: give the figure in nM, leave out the unit.

Answered cases to consult:
- SMILES_REPR: "C=CC(=O)N(CC(=O)N[C@@H](Cc1ccc(C)cc1C)B(O)O)c1ccccc1F"
  QUANTITY_UNIT: "nM"
  MEASURED: 670
- SMILES_REPR: "Cc1ccc(C[C@H](NC(=O)c2nnn(Cc3ccccc3)c2C)B2O[C@@H]3C[C@@H]4C[C@@H](C4(C)C)[C@]3(C)O2)c(C)c1"
  QUANTITY_UNIT: "nM"
  MEASURED: 9300
- SMILES_REPR: "CC(C)C[C@H](NC(=O)c1cn(C2CCCCC2)nn1)B(O)O"
  QUANTITY_UNIT: "nM"
  MEASURED: 2900
- SMILES_REPR: "COc1ccc(C(=O)NCCn2cc(C(=O)N[C@@H](CC(C)C)B(O)O)nn2)c(OC)c1OC"
  QUANTITY_UNIT: "nM"
  MEASURED: 54

Now for another entry.
Query :: Entry `CC(C)C[C@H](NC(=O)[C@H](Cc1ccccc1)NC(=O)c1cnccn1)B(O)O` has what IC50?
Result :: 3.9

----------
# ASSAY: Inhibition of human 20S proteasome beta 5i preincubated for 1 hr followed by fluorescence based assay
List of IC50 values.
The reply should contain only the number, in nM.

Query :: Would you kindly share the measured IC50 for `O=C(N[C@@H](Cc1ccc(Cl)cc1)B(O)O)c1cn(Cc2ccccc2)nn1` ?
Result :: 0.54

Query :: What does the record list as IC50 for `COC[C@H](NC(=O)c1cc(C)on1)C(=O)N[C@H](C(=O)N[C@@H](CC(C)C)C(=O)[C@@]1(C)CO1)C1CC1` ?
Result :: 2100

Query :: Value lookup for IC50; key = `CC(C)C[C@H](NC(=O)c1cc(Cc2ccccc2)on1)B(O)O`
Result :: 23

Query :: Any idea what IC50 was measured for `CC(C)C[C@H](NC(=O)c1cn(-c2ccccc2)nn1)B(O)O` ?
Result :: 1.4

Query :: Return reported IC50; argument: `O=C(N[C@@H](Cc1ccc(Cl)cc1)B(O)O)c1cn(-c2ccccc2)nn1`
Result :: 0.91
